molecular target: Neu5Ac(a2-3)Gal(b1-4)[Fuc(a1-3)]GlcNAc(b1-3)Gal(b1-4)GlcNAc; experiment: glycan array binding signal (z-score within array); higher = stronger binding; conditions: glycan notation: IUPAC condensed, linker removed
This is one part of a sample in which the strongest signals are shown more often than they occur.
measurement label: glycan array binding signal (z-score)
Kindly provide the number alone.

// glycan array binding signal (z-score) value for Spy 2007 (Streptococcus pyogenes), Q99XV3 (protein) MKKGFFLMAMVVSLVMIAGCDKSANPKQPTQGMSVVTSFYPMYAMTKEVSGDLNDVRMIQSGAGIHSFEPSVNDVAAIYDADLFVYHSHTLEAWARDLDPNLKKSKVDVFEASKPLTLDRVKGLEDMEVTQGIDPATLYDPHTWTDPVLAGEEAVNIAKELGRLDPKHKDSYTKNAKAFKKEAEQLTEEYTQKFKKVRSKTFVTQHTAFSYLAKRFGLKQLGISGISPEQEPSPRQLKEIQDFVKEYNVKTIFAEDNVNPKIAHAIAKSTGAKVKTLSPLEAAPSGNKTYLENLRANLEVLYQQLK : 0.479

// glycan array binding signal (z-score) value for FimD (Bordetella pertussis) (protein) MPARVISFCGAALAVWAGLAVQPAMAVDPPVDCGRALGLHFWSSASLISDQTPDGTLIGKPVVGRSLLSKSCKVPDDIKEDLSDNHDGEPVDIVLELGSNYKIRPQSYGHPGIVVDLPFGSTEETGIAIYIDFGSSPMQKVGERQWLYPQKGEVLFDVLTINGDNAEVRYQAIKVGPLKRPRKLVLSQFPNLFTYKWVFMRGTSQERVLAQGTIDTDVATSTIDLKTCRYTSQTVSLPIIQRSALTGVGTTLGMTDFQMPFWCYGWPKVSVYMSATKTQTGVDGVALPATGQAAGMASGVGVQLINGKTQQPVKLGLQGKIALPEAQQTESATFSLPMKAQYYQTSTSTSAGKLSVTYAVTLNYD : 0.96
